For each of the molecules below, state its melting point.

Reported melting point for CCN1CC(=O)c2ccc3ccccc3c2S1(=O)=O was 146 to 147 °C

Documented melting point of CCOC(=O)c1cc(NCc2ccccc2)c(Nc2ccc(C)cc2C)c(S(N)(=O)=O)c1 : 167 to 168 °C

The measured melting point associated with O=CC1(Br)C2CCC(CC2)C1c1ccccc1 (stereo unspecified) reads 65 to 66 °C

molecule CCOc1ccc(-c2nc(-c3cc(C(=O)O)c(O)cc3O)cs2)cc1OCC , melting point observed: 233 to 234 °C

Measured melting point of COc1cc2c(cc1Nc1ncc(Cl)c(NC3(C(=O)OC(C)C)CCCC3)n1)CCN(CC(=O)N(C)C)CC2 : 65 to 70 °C

melting point reported for this molecule COCCOc1ccc(CCCNS(=O)(=O)CCCc2ccccc2)c(Oc2ncc(C(F)(F)F)cc2Cl)c1 : 102 °C

The value of melting point measured for the molecule CCCCc1ncc(/C=C(\Cc2cccs2)C(N)=O)n1Cc1cccc(Cl)c1Cl turned out to be 185 to 187 °C

// recorded melting point for CC(C(=O)O)c1ccc2cc(OCc3ccc4ccc(Cl)cc4n3)ccc2c1 (stereo unspecified) : 188 to 190 °C

Record Clc1ccc(CNc2cncnc2)cc1 , field melting point: 121 °C

Noted for Cc1cc(N)c(C)c(/C=C/C(=O)O)c1 : its melting point reads 185 °C

The value of melting point measured for the molecule NC(=O)COC(=O)c1ccc(O)cc1 turned out to be 250 to 255 °C

###

metric: melting point

melting point reading for CC(C)COc1ccc(C(=O)N/C(=C\c2ccc(OCC(F)F)cc2)C(=O)NCCO)cc1 : 150 to 151 °C

Please fill in: melting point reported for NS(=O)(=O)c1ccc(-c2c(-c3ccccc3)noc2CCO)cc1 = 186 to 190 °C

So, COc1cc2scc(C(=O)Nc3cccnc3)c2cc1Br ? Its melting point was 160 to 161 °C

Reported melting point of CC(=O)N[C@H]1CC[C@H](CCN2CCC(c3ccc(F)c4occc34)CC2)CC1 : 204 °C

So for CN1C(=O)CC[C@]2(C)c3ccc(Sc4ccc5nc6ccccc6c(=O)n5n4)cc3CC[C@@H]12 , the logged melting point turned out to be 110 to 114 °C

###

metric: melting point

The molecule N#Cc1c(Br)[nH]c(Br)c1C(F)(F)F showed melting point equal to 198 to 200 °C

The measured melting point associated with O=c1c(N2CCNCC2)nccn1CCOc1cccc([N+](=O)[O-])c1 reads 171 °C

Note to self: melting point recorded for CN(C)Nc1nc(Cl)nc2c1ncn2C1OC(CCl)C(O)C1O (centres undefined) was 188 to 189 °C

For CCN1CCCC1CNC(=O)c1c(OC)c(Cl)cc(Br)c1OC (centres undefined) the molecule record lists melting point as 124 to 125 °C

###

Provide the reported melting point of each item.

Reported melting point for COc1ccc(C(C#N)C2(O)CCCCC2)cc1 (stereo unspecified) was 125 to 127 °C

For O=C(NOCc1ccccc1)c1ccc(CNC(=O)c2cn3c4c(cccc24)CCC3)cc1 the molecule record lists melting point as 234 to 235 °C

The reported melting point of the molecule CCNC(=S)Nc1cccc(C(=O)OCC)c1NCc1ccc(-c2ccccc2C#N)cc1 was 108 to 110 °C

Form field melting point, entry CCOC(=O)c1cn(C)nc1C(F)(F)F : 61.5 to 63.1 °C

Input N=C1SCCN1c1ccc(C(F)(F)F)cc1[N+](=O)[O-] . Output melting point: 153 °C

Given item CCCCCCCCCCC1SCCCN1C(=S)Nc1cccc(Br)c1 (stereo unspecified) , the value recorded as its melting point is 73 to 74 °C

CCn1c2c(c3ccccc31)C=CN(C(=O)OC)C=C2C(=O)OC has a reported melting point of 129 °C

Form: molecule = CS(=O)(=O)Nc1ccc(C(O)C2CCN(CCc3ccccc3)CC2)cc1 (stereo unspecified) ; melting point = 164 to 166 °C

For record C=CC(=O)OCCCCCCC(CCCCCCOC(=O)C=C)C(=O)OCCCCCCCCCCCCCCCCOc1ccc(-c2cccc(F)c2F)cc1 the listed melting point is 33.8 to 35.5 °C

Reported melting point ( Cc1nnc2n1-c1sc(C(N)=O)cc1C(c1ccccc1Cl)=NC2 ) = 230 to 232 °C

melting point reading for CC(=NOc1ccc(F)cc1)c1ccc(C(F)(F)F)cc1NS(=O)(=O)C(F)(F)F : 95 to 96 °C

Reported melting point of CC(C)(C)OC(=O)N1C[C@@H](CC(=O)C(=[N+]=[N-])C(=O)OCc2ccc([N+](=O)[O-])cc2)[C@H]2NC(=O)[C@H]21 : 132 to 134 °C

melting point recorded for this molecule, O=C(Nc1cccc2c(CBr)c(Br)cnc12)c1c(Cl)cccc1Cl , is 210 to 213 °C

melting point for Cn1nc(C(F)(F)F)nc1Oc1cc(On2c(=O)cc(C(F)(F)F)n(C)c2=O)c(F)cc1Cl is 138 to 140 °C

Data point: N=C(N)NCCc1ccc(OCCC2Oc3ccccc3N(Cc3cccc(Cl)c3)C2=O)cc1 (stereo unspecified) ; melting point = 90 to 101 °C

Looking up COc1ccc2c(c1)C(CCNC(C)=O)C1(CC2)Cc2ccccc2C1 (stereo unspecified) , I found its melting point recorded as 139 to 141 °C

// CCOC(=O)N(CCN(C(=O)OCC)C1CCCCC1)C1CCCCC1 : melting point value = 108 °C

The molecule Cc1nsnc1-n1cc(C(=O)O)c(=O)c2cc(F)c(Cl)nc21 showed melting point equal to 247 to 249 °C

Entry under test: CC(=C[N+](=O)[O-])NCCN(C)Cc1ccc(Cl)nc1 . Its melting point was 78 to 80 °C

Input COc1ccc(/C=C/C#N)cc1OC . Output melting point: 93 to 98 °C

Lookup result for O=C(CN1CCN(c2cnccn2)CC1)N1CC=C(c2ccc(Cl)cc2)CC1 ; measured melting point: 139 to 141 °C

Record CN1CCCC1CNC(=O)c1cc(S(=O)(=O)N(C)C)cc2c1OCCO2 (stereo unspecified) , field melting point: 165 to 166 °C

For C#CCOC(=O)c1ccc(O)cc1 the molecule record lists melting point as 82 to 84 °C

Reported melting point of COC(=O)N1CCN(C(=O)N2CCC(c3cccnc3)C2)c2ccccc21 (stereo unspecified) : 83 °C

Entry CC(C)COC(=O)Nc1ccc(C2CCSCC2)cc1 — recorded melting point = 126 to 128 °C

For record CCCC(=O)NC[C@@H]1C[C@H]1c1cc(OC)c(Br)cc1Br (relative stereo) the listed melting point is 114 to 115 °C

Query CSCc1c(Cl)ccc(C(=O)c2cnoc2C2CC2)c1SC yields melting point of 79.9 to 80.5 °C

The molecule listed as CS(=O)(=O)c1ccc(-c2cnn(-c3ccc(F)cc3)c(=O)c2S(=O)(=O)c2ccccc2)cc1 has a reported melting point of 203 to 204 °C

Item: FC(F)(F)c1n[nH]c(-c2nc3ccccc3s2)n1 | melting point: 254 °C

// field: melting point; key: NC(=O)Cc1ccc(C2CCCCC2)cc1 ; value = 167 to 168 °C

Lab note: OCCSC/C=C/c1ccc(Cc2cccnc2)cc1 gave melting point of 73 to 74 °C

###

Kindly supply the reported melting point values for the records listed here.

Reported melting point ( Clc1ccc(N2CCN3CCC2CC3)nn1 ) = 127 to 128 °C

// recorded melting point for CCN(CC)CCOc1ccc(Nc2ncc3c(n2)N(C)C(=O)N(C(C)(C)C)C3)cc1 : 130 °C

The measured melting point associated with NC(=O)CNC(=O)c1nccc(-c2cccc3cc(Cc4cccc(C(F)(F)F)c4)sc23)n1 reads 241 to 242 °C

melting point for O=C1Cc2cc(OCc3ccc4ccccc4n3)ccc2N1c1c(Cl)cccc1Cl is 147 to 148 °C

// sample Clc1ccc(N2CCN(Cc3n[nH]c4c(Cl)cccc34)CC2)nc1 , its melting point was 150 to 152 °C

response.value for N#Cc1ncc(OC2SCC(O)C(O)C2O)cc1F (centres undefined) (field: melting point) = 155 to 156 °C

Reported melting point of Cn1c(=O)c2c(I)cccc2n2cnc(-c3noc(C4CC4)n3)c12 : 217 to 220 °C

Recorded melting point (compound O=C(c1ccccc1)C(CCCCl)c1ccccc1 (centres undefined) ): 72 to 74 °C

melting point measured on Cc1ccc(S(=O)(=O)N2CCC[C@H]2C(=O)N[C@@H](Cc2ccc(OCCCN3CCN(C)CC3)cc2)C(=O)O)cc1 = 80 to 83 °C

Memo: COc1ccc(C(=O)Nc2ccc(C(C)(C)C(N)=O)cc2)cc1 , reported melting point: 234 to 235 °C

Kindly note the recorded melting point for CO/N=C1\CCCC[C@@H]1NC(=O)c1ncc(O[C@@H](C)C(F)(F)F)c(-c2ccc(Cl)cc2)n1 , which is 180 to 182 °C

Form field melting point, entry COc1cc(CC(=O)Nc2cnn(Cc3c(C)noc3C)c2)cc(OC)c1O : 187 to 188 °C

Consider COC1=C(C(=O)c2ccc(C)cc2)C(c2ccc(OC(F)(F)F)cc2)N(c2ccc(C)nn2)C1=O (centres undefined) . Its measured melting point is 206 to 207 °C

Please fill in: melting point reported for ClC1=Nc2ccccc2Cn2cccc21 = 102 to 104 °C

melting point in this record for COc1cccc(C2=C(c3cn4c5c(cccc35)CCC4)C(=O)NC2=O)c1 : 99 to 101 °C

Reported melting point of CC(C(=O)O)c1ccc2c(c1)Sc1ncccc1CC2=O (centres undefined) : 150 to 151 °C

The value of melting point measured for the compound COC(=O)c1ccc2ccc(C#N)cc2c1 turned out to be 136 °C

// field: melting point; key: CC(=O)C(Cl)=NNc1ccc(Oc2ccccc2)cc1 ; value = 108 to 111 °C

Entry OCc1c(CO)c(-c2ccc(F)c(F)c2)n2c1Cc1ccccc1C2 — recorded melting point = 145 to 146 °C
